Assign pIC50 to each entry below.
Tested on: HCT-116
assay details: MTT antiproliferative assay, HCT-116
Format: cell-based
condition: Homo sapiens, colorectal carcinoma HCT-116
One number for each entry, as −log10 of the molar value.

Use the examples below as a reference point.
>  <molecule>
O=C(NCc1ccccc1)c1ccc(NC(=O)c2cccnc2)cc1

>  <meas value>
4.79

$$$$
>  <molecule>
O=C(Nc1ccc(C(=O)Nc2ccccc2[N+](=O)[O-])cc1)c1cccnc1

>  <meas value>
4.74

$$$$

Lookup: State recorded pIC50 with HCT-116, entry O=C(N/N=C/c1ccc([N+](=O)[O-])cc1)c1ccc(NC(=O)c2cccnc2)cc1 [Compound 11c] , no comment.
Found: 5.24
